Readings of cytotoxicity at 70.5 h for the listed compounds
# assay: Human HepG2 cell viability assay in 384 well format
# Type: toxicity, cell-based
# Parameters: dose 125 nL, time 70.5 hour; concentration not given beside the values
# condition_details: HepG2 cells, read-out: Inhibition
Number in %, nothing else.

// query For the compound shown here, CN(C(=O)c1cccc(C(=O)NCC(F)(F)F)c1)c1ccccc1 , give the reported cytotoxicity at 70.5 h.
// result 10.6

// query Next entry: CCN1CC(=O)NCC12CCN(C(=O)c1ccco1)C2 (stereo unspecified)
// result -3.25

// query Next entry: COCCN1CCC(C)(c2cc(O)[nH]n2)CC1
// result -3.06

// query Next entry: O=C(NCC1CC1)C1CSCN1S(=O)(=O)c1cc(F)cc(F)c1 (stereo unspecified)
// result -15.2

---

Readings of cytotoxicity at 70.5 h for the listed molecules
# assay: Human HepG2 cell viability assay in 384 well format
# Assay type: toxicity, cell-based
# Set-up: dose 125 nL, time 70.5 hour; concentration not given beside the values
# condition_details: HepG2 cells, read-out: Inhibition
The answer should read as a number with its unit following.

Observe how each entry below is paired with its result.
COc1ccc2nnc(CCCC(=O)NCc3ccccc3)n2n1; -13.2%
CCN1CCN(Cc2ccnc(-c3cccnc3)n2)CC1; -2.52%
Cc1cccc(CN2CCC3(CC(C(=O)NCC(C)C)=NO3)C2)c1 (stereo unspecified); -5.06%
CN(C)C(CNC(=O)c1cc2c([nH]c1=O)CCCC2=O)c1ccsc1 (stereo unspecified); -2.41%
COc1ccc(COCC(O)CNC(=O)Cc2ccc(C)cc2)cc1 (stereo unspecified); -2.43%

Let us examine a further case.
// query For the molecule shown here, COc1ccc(OC)c(S(=O)(=O)NC(=O)C(C)OC)c1 (stereo unspecified) , give the reported cytotoxicity at 70.5 h.
// result -13.3%

---

Readings of cytotoxicity at 70.5 h for the listed compounds
# assay: Human HepG2 cell viability assay in 384 well format
# Assay type: toxicity, cell-based
# Set-up: dose 125 nL, time 70.5 hour; concentration not given beside the values
# condition_details: HepG2 cells, read-out: Inhibition
Number in %, nothing else.

Observe how each entry below is paired with its result.
Cc1ccc(S(=O)(=O)N2CCOCC2C#N)c(F)c1 (centres undefined); 2.28
CC(C)c1nc(C2CCCN(C(=O)Cc3cccnc3)C2)no1 (centres undefined); -16.6
Cc1noc([C@@H]2C[C@H]3CN(Cc4cc(C)on4)C[C@H]3O2)n1; -4.39
Cn1cc(C[C@H]2[C@H](O)CCN2CC2CC2)cn1; 6.74

// query For the compound shown here, CN1C[C@@H]2CC[C@H](CC1=O)N2C(=O)c1cc2ccccc2[nH]c1=O , give the reported cytotoxicity at 70.5 h.
// result -6.85

// query Next entry: CSCc1noc(CNC(=O)C2CCN(C3CCCCC3)CC2)n1
// result -21.4

// query Next entry: COc1ccc(-c2noc(CN3CCN(c4cnccn4)CC3)n2)cc1
// result -16.7

// query Next entry: Cc1ccc(OCc2occc2C(=O)N2CC[C@H](CO)[C@@H](O)C2)cc1
// result -8.34

// query Next entry: O=C(Nc1nnc(C2CC2)s1)NC1CCOc2ccccc21 (centres undefined)
// result 22.9

---

Readings of cytotoxicity at 70.5 h for the listed compounds
# assay: Human HepG2 cell viability assay in 384 well format
# Type: toxicity, cell-based
# Set-up: dose 125 nL, time 70.5 hour; concentration not given beside the values
# condition_details: HepG2 cells, read-out: Inhibition
Number in %, nothing else.

// query For the compound shown here, CN(Cc1ccco1)C[C@H]1OC[C@@H]2CCN(Cc3nccs3)C[C@@H]21 , give the reported cytotoxicity at 70.5 h.
// result -10.1

// query Next entry: CCCc1cc(NC2CCc3nc(CC)nn3C2)n2ncnc2n1 (stereo unspecified)
// result -100

// query Next entry: CCc1cc(=O)[nH]c(-c2ccc(NC(C)COC)nc2)n1 (stereo unspecified)
// result 2.74

// query Next entry: COCCNc1ccc(CC2CCNC2)cn1 (stereo unspecified)
// result -5.62

// query Next entry: O=c1oc(-c2cccs2)nn1CC1(O)CCCCC1
// result -1.35

// query Next entry: O=C(NCCN1CCCC1)c1nc2c(o1)CN(C(=O)c1cccnc1)C2
// result -1.83

---

# assay: Human HepG2 cell viability assay in 384 well format
# Type: toxicity, cell-based
# Design: dose 125 nL, time 70.5 hour; concentration not given beside the values
# condition_details: HepG2 cells, read-out: Inhibition
Readings of cytotoxicity at 70.5 h for the listed compounds
Number in %, nothing else.

Observe how each entry below is paired with its result.
CC(=O)N1CCC2(CC1)c1ncc(-c3ccccc3)n1CCN2C; -9.38
O=C(NCC1CC1)c1ccc(NC(=O)c2ccco2)cc1; -5.31

// query For the compound shown here, Cc1nn2cnnc2c(C)c1CCC(=O)Nc1nnc(C(C)C)s1 , give the reported cytotoxicity at 70.5 h.
// result 12.1

// query Next entry: CC(C)(C)c1ncc2c(n1)CN(C(=O)c1ccc(-c3nc[nH]n3)cc1)C2
// result -1.51

// query Next entry: O=C(C1CC1)N1CCC(Oc2ccccc2Cl)CC1
// result 20.6

// query Next entry: Cn1ccc(C(=O)N2CCCC(Cc3cccc4cccnc34)C2)n1 (stereo not drawn)
// result 11.6

// query Next entry: COc1cccc(CN2CCN(C(=O)Nc3nc(C)ns3)CC2=O)c1
// result -0.713

---

# assay: Human HepG2 cell viability assay in 384 well format
# Format: toxicity, cell-based
# Design: dose 125 nL, time 70.5 hour; concentration not given beside the values
# condition_details: HepG2 cells, read-out: Inhibition
observation_type: cytotoxicity at 70.5 h (%)
Number in %, nothing else.

Observe how each entry below is paired with its result.
O=C(NCCCO)c1nc(-c2ccc3cc[nH]c3c2)no1; -7.51
CC(C)N1CCC2(CCCNC2)C1=O (stereo unspecified); -14.6
COc1ccc(CC(=O)N2CCCCC2Cn2cccn2)cc1 (stereo unspecified); -3.73
CN(Cc1ccccn1)C1CCCN(Cc2noc(C3CC3)n2)C1 (stereo unspecified); -8.62
CC(C)N(C)Cc1nnc2n1CCN(CC1CC1)CC2; -0.138
CS(=O)(=O)NC[C@]1(O)CCN(C(=O)Cc2cccs2)C[C@H]1O; 12.2

// query For the molecule shown here, CCOC(=O)NC1CCCN(Cc2ccc(-n3cncn3)c(C)c2)C1 (stereo unspecified) , give the reported cytotoxicity at 70.5 h.
// result -0.7

// query Next entry: CN(C)C(=O)[C@@H]1CCO[C@@H]2CCN(Cc3ccccc3)C[C@@H]21
// result -3.08

// query Next entry: Cn1nccc1C(=O)N1CC[C@]2(C[C@H](OCc3ccccn3)CO2)C1
// result -11.1

// query Next entry: Cc1cc2cc(NC(=O)Cn3ncc(N4CCCC4)cc3=O)ccc2o1
// result 15.3

// query Next entry: CCOC(CC)C(=O)NCCC(=O)N1CCN(c2ccccn2)CC1 (stereo unspecified)
// result -14.2

---

Readings of cytotoxicity at 70.5 h for the listed molecules
# assay: Human HepG2 cell viability assay in 384 well format
# Assay type: toxicity, cell-based
# Design: dose 125 nL, time 70.5 hour; concentration not given beside the values
# condition_details: HepG2 cells, read-out: Inhibition
Number in %, nothing else.

Cn1ccnc1CN1CCC2(CC1)CCN(c1ccccc1)C2=O; 27.2

// query For the molecule shown here, CCCc1cc(CNC2CCN(c3cc(C(C)C)nc(C)n3)CC2)on1 , give the reported cytotoxicity at 70.5 h.
// result -4.25

// query Next entry: COc1ccc2c(c1)nc1n2[C@@H](CNC(=O)c2cccnc2)COC1
// result 4.29

// query Next entry: Cn1cc(CN2CC[C@@H]3[C@@H](CO[C@H]3CNC(=O)c3ccco3)C2)cn1
// result -3.28

// query Next entry: CC(Cn1cccn1)NC(=O)c1ccsc1 (stereo unspecified)
// result -11.4

// query Next entry: O=C(CN1CCCC1Cn1cncn1)Nc1ccc(Cl)cn1 (stereo unspecified)
// result -3.38

// query Next entry: CCS(=O)(=O)N1CCc2ccc(NC(=O)NC(C)(C)C)cc21
// result -13.6

// query Next entry: Cc1nn(C)cc1-c1ccnc(N2CCSCC2)n1
// result -1.53

// query Next entry: Cc1ccc(C(=O)NCC2CCCCO2)c(=O)[nH]1 (stereo unspecified)
// result -3.97

// query Next entry: CN(Cc1noc2c1CCCC2)C(=O)CN1C(=O)CSc2ccccc21
// result 3.41

// query Next entry: Cc1nn(C)cc1C(=O)N1CCCC(n2nnc3cc(F)ccc32)C1 (stereo unspecified)
// result 11.8

---

# assay: Human HepG2 cell viability assay in 384 well format
# Format: toxicity, cell-based
# Parameters: dose 125 nL, time 70.5 hour; concentration not given beside the values
# condition_details: HepG2 cells, read-out: Inhibition
Readings of cytotoxicity at 70.5 h for the listed compounds
Number in %, nothing else.

Observe how each entry below is paired with its result.
CO[C@H]1CCN(C(=O)c2cc(C)on2)C[C@@H]1Cc1ccccc1; 5.73
Cc1ccc(C)c2c(C)c(C(=O)NCCC(=O)N3CCOCC3)oc12; -10.6
Cc1cc(CNC(=O)c2cc(COc3cncc(Cl)c3)on2)n[nH]1; 16
O=C(c1ncccn1)N1CC[C@H]2OCC[C@@]2(COc2ccccn2)C1; -6.64
Cc1cnc(NCC(C)(C)N2CCCCC2)nc1; -5.95

Let us examine a further case.
// query For the compound shown here, Cc1noc(C)c1CNC[C@@]1(COc2cccnc2)C[C@@H](O)[C@@H](O)C1 , give the reported cytotoxicity at 70.5 h.
// result -8.56
